System: Alternaria solani
test description: Test E: tomato early blight, preventive spray on tomato seedlings, visual disease rating
Type: in vivo
protocol conditions: 200 ppm, 100 = 100% disease control, 0 = no control
Please enter t where Test E rating (% disease control) is greater than or equal to 90%, and f where it is lower.

# compound, group
measured = [
    ("CCOC(=O)c1cnc(C)c(-c2ccccc2F)c1-c1cc(OC)cc(OC)c1", "f"),
    ("COc1cc(OC)cc(-c2c(C(C)(C)O)cnc(C)c2-c2c(F)ccc(OC)c2F)c1", "t"),
    ("CCOC(=O)c1cnc(C)c(-c2ccccc2)c1-c1cc(F)cc(F)c1", "f"),
    ("COc1cc(OC)cc(-c2c(-c3ccccc3F)c[n+]([O-])c(C)c2-c2ccccc2)c1", "t"),
    ("COc1cc(OC)cc(-c2c(-c3ccccc3F)cnc(C)c2-c2ccc(F)cc2)c1", "t"),
    ("COc1cc(OC)cc(-c2c(-c3ccc(F)cc3)cnc(C)c2-c2ccccc2F)c1", "f"),
    ("COc1cc(OC)cc(-c2c(Cn3cccn3)cnc(C)c2-c2c(F)cc(F)cc2F)c1", "t"),
    ("COc1cc(OC)cc(-c2c(C3=CCCCC3)cnc(C)c2-c2ccc(F)cc2)c1", "f"),
    ("COc1cc(OC)cc(-c2c(C(C)=O)cnc(C)c2-c2ccccc2F)c1", "f"),
    ("CCOC(=O)c1cnc(C)c(-c2ccccc2)c1-c1cc(OC)cc(OC)c1F", "f"),
    ("CCOC(=O)c1cnc(C)c(-c2c(F)ccc(F)c2F)c1-c1cc(OC)cc(OC)c1", "t"),
    ("CCC(C)(O)c1cnc(C)c(-c2ccc(F)cc2)c1-c1cc(OC)cc(OC)c1 (stereo not drawn)", "t"),
    ("COc1cc(OC)cc(-c2c(-c3c(F)cccc3F)cnc(C#N)c2-c2c(F)cccc2F)c1", "t"),
    ("COc1cc(OC)cc(-c2c(C(C)(C)O)c[n+]([O-])c(C)c2-c2ccccc2)c1", "f"),
    ("CCC(O)(CC)c1cnc(C)c(-c2c(F)cc(F)cc2F)c1-c1cc(OC)cc(OC)c1", "f"),
    ("COc1ccc(-c2c(C)ncc(C(C)(O)CO)c2-c2cc(OC)cc(OC)c2)cc1 (single isomer, unassigned) [Compound 83]", "t"),
    ("CCC(O)c1cnc(C)c(-c2c(F)cc(F)cc2F)c1-c1cc(OC)cc(OC)c1 (stereo not drawn)", "t"),
    ("COc1ccc(-c2c(C)ncc(C(C)=O)c2-c2cc(OC)cc(OC)c2)cc1", "f"),
    ("COc1ccc(-c2c(C)ncc(C(C)C)c2-c2cc(OC)cc(OC)c2)cc1", "t"),
    ("COc1cc(OC)cc(-c2c(Cn3cncn3)cnc(C)c2-c2c(F)cc(F)cc2F)c1", "t"),
    ("COc1cc(OC)cc(-c2c(Cn3ccc(C(F)(F)F)n3)cnc(C)c2-c2c(F)cc(F)cc2F)c1", "f"),
    ("C=C(C)c1cnc(C)c(-c2ccc(OC)cc2)c1-c1cc(OC)cc(OC)c1", "t"),
    ("COc1cc(OC)cc(-c2c(C(=O)N(C)C)cnc(C)c2-c2ccccc2)c1", "f"),
    ("CCC(C)c1cnc(C)c(-c2ccc(F)cc2)c1-c1cc(OC)cc(OC)c1 (stereo not drawn)", "f"),
    ("COc1cc(OC)cc(-c2c(-c3ccccc3)c(C)nc(C)c2-c2ccccc2F)c1", "f"),
    ("COc1cc(OC)cc(-c2c(-c3ccccc3F)cnc(C)c2-c2ccccc2)c1", "f"),
    ("COc1cc(OC)cc(-c2c(C(C)=O)cnc(C)c2-c2c(F)ccc(F)c2F)c1", "t"),
    ("CCOC(=O)c1c[n+]([O-])c(C)c(-c2ccccc2)c1-c1cc(OC)cc(OC)c1", "f"),
    ("COc1ccc(-c2c(C)ncc(C(C)CO)c2-c2cc(OC)cc(OC)c2)cc1 (stereo not drawn)", "t"),
    ("COc1cc(OC)cc(-c2c(-c3c(F)cc(F)cc3F)cnc(Cl)c2-c2c(F)cc(F)cc2F)c1", "f"),
    ("COc1cc(OC)cc(-c2c(-c3ccccc3)c(C)nc(C)c2-c2ccc(F)cc2)c1", "f"),
]
